Tested on: HCT-116 colon
protocol description: NCI-60 one-dose screen, 48 h
particulars: 10 µM unless noted
This is part of a sample that, as a whole, favours compounds with a hit. Of some 83,000 tested, about 20% had one in any assay. Activity calls are given as the source filed them. The calls were made as follows: active = growth percent below 10; inactive = the rest.
Outcome (select one): y (active), n (inactive)

Hey, what did the test say about OCCNC(Cc1ccccc1)c1ccc2c(c1)OCO2 (stereo not drawn) ?
n

Next: C1CCC([PH+](C2CCCCC2)C2CCCCC2[PH+](C2CCCCC2)C2CCCCC2)CC1.[Au].[CH-]1CCCCC1CC1CCCC[N-]1 (stereo not drawn)
y

Can you handle "CC1=C(CCCOC(=O)CN)C2=C(C)C3(CC3)[C@@](C)(O)C(=O)C2=C1" next?
n

###

Tested on: NCI/ADR-RES ovarian
protocol description: NCI-60 one-dose screen, 48 h
particulars: 10 µM unless noted
This is part of a sample that, as a whole, favours compounds with a hit. Of some 83,000 tested, about 20% had one in any assay. Active and inactive are the calls of the source. The calls were made as follows: active = growth percent below 10; inactive = the rest.
# output must be one of active, inactive

Recorded test outcome, item "COc1ccc(Nc2ccnc3cc(Cl)ccc23)cc1CN(CCCl)CCCl"
active

What do you get for "CC1(C)N=C(N)N=C(N)N1c1ccc(OCCCNC(=O)Nc2ccc(S(=O)(=O)F)cc2)c(Cl)c1" ?
inactive

Continue with "Nc1cc2nc3ccccc3nc2cc1N"
inactive

"O=NNc1ccccn1" ?
inactive

Next record, please: "CN(CCCCN(C)CCOS(C)(=O)=O)CCOS(C)(=O)=O"
inactive

// repeat for "CN1C(=O)C(=Cc2cn(CCCCCCn3c4ccccc4c(=O)c4ccccc43)c3ccccc23)C(=O)N(C)C1=O" and report
inactive

Follow-up item: C[S+]1C=Cc2ccccc2C1c1ccc(Cl)cc1 (stereo not drawn)
inactive

Please answer likewise for "CC[S][Hg][Cl]"
inactive

Next compound: "N/C(=N\N=C\c1ccc(-c2ccccc2)cc1)N[N+](=O)[O-]"
inactive

Follow-up item: O=C1C2C(C(=O)[N]1[Hg][c]1ccccc1)C1(Cl)C(Cl)=C(Cl)C2(Cl)C1(Cl)Cl (stereo not drawn)
inactive

Item: "C/C(=C\c1ccn(-c2ccccc2N)n1)[C@@H]1C[C@@H]2O[C@]2(C)CCC[C@H](C)[C@H](O)[C@@H](C)C(=O)C(C)(C)[C@@H](O)CC(=O)O1"
active

What do you have for "C=CC[n+]1ccc(-c2cc[n+](CC=C)cc2)cc1" ?
inactive

Follow-up entry: "COc1ccc(/C=C\c2cc(OC)c(OC)c(OC)c2)cc1OCC(=O)Nc1nc2ccc(C(F)(F)F)cc2s1"
active

Okay, and "C[C@@]1(CCCCCCCCCc2ccc(O)cc2)C[C@]2(C)OC(=O)C[C@@H]2OO1" ?
inactive

Continue with O=C(CC1(O)C(=O)N(Cc2ccccc2)c2ccccc21)c1ccc(C(=O)NCC2CCC3(CC2)OOC2(CCCCC2)OO3)cc1 (stereo not drawn)
active

Please give the result for "COC(=O)[C@@]1(O)C[C@H]2O[C@]1(C)n1c3ccccc3c3c4c(c5c6ccccc6n2c5c31)C(=O)NC4" too.
active

Next up: "COC(=O)[C@@H](C)C[C@H](Cc1cn(C)c2ccccc12)NC(=O)c1csc([C@@H](C[C@H](C(C)C)N(C)C(=O)[C@@H](NC(=O)[C@H]2CCCCN2C)C(C)C)OC(C)=O)n1"
inactive

Also "Cn1cc(C2=C(c3cn(C4CCN(Cc5ccccn5)CC4)c4ccccc34)C(=O)NC2=O)c2ccccc21" ?
inactive
